- experiment_notes: Metabolic stability in human liver microsomes assessed as intrinsic clearance at 1 uM measured upto 30 mins by LC-MS/MS analysis
- Format: ADME, Microsome
- condition_set: read-out: CLH
measured_quantity: microsomal CLint at 1 µM (µL/min/mg)

[A] CC1(CNC(=O)[C@H]2[C@@H]3CC[C@@H](C3)[C@H]2NC(=O)c2cc(O[C@H]3CC[C@@](C)(C(=O)O)CC3)c(F)cc2F)CCC1
[B] COc1cc(F)c(O[C@H]2CC[C@@](C)(c3noc(=O)[nH]3)CC2)cc1C(=O)N[C@@H]1[C@H]2CC[C@H](C2)[C@@H]1C(=O)NCC1(C)CCC1
[C] COc1cc(C(F)(F)F)c(O[C@H]2CC[C@@](C)(C(=O)O)CC2)cc1C(=O)N[C@@H]1[C@H]2CC[C@H](C2)[C@@H]1C(=O)NCC1(C)CCC1
[D] CC1(CNC(=O)[C@H]2[C@@H]3CC[C@@H](C3)[C@H]2NC(=O)c2cc(O[C@H]3CC[C@@](C)(C(=O)O)CC3)c(F)cc2O)CCC1
INPUT: Rank the 4 compounds: largest microsomal CLint at 1 µM first, smallest last. Output the labels ranked as instructed.
OUTPUT: B, A, C, D

[1] CC1(CNC(=O)[C@H]2[C@@H]3CC[C@@H](C3)[C@H]2N2CCc3cc(F)c(O[C@H]4CC[C@@](C)(C(=O)O)CC4)cc3C2=O)CCC1
[2] COc1cc(F)c(O[C@H]2CC[C@@](C)(C(=O)O)CC2)cc1C(=O)N[C@@H]1[C@H]2CC[C@H](C2)[C@@H]1C(=O)NCC(C)(C)C
INPUT: Min microsomal CLint at 1 µM? 1 | 2 // caller expects the label of the chosen entry
OUTPUT: 2
(2: 14 µL/min/mg, 1: 44 µL/min/mg)

###

- experimental_system: Relaxin receptor 1 (Homo sapiens, UniProt Q9HBX9)
- Sequence (Q9HBX9 whole entry): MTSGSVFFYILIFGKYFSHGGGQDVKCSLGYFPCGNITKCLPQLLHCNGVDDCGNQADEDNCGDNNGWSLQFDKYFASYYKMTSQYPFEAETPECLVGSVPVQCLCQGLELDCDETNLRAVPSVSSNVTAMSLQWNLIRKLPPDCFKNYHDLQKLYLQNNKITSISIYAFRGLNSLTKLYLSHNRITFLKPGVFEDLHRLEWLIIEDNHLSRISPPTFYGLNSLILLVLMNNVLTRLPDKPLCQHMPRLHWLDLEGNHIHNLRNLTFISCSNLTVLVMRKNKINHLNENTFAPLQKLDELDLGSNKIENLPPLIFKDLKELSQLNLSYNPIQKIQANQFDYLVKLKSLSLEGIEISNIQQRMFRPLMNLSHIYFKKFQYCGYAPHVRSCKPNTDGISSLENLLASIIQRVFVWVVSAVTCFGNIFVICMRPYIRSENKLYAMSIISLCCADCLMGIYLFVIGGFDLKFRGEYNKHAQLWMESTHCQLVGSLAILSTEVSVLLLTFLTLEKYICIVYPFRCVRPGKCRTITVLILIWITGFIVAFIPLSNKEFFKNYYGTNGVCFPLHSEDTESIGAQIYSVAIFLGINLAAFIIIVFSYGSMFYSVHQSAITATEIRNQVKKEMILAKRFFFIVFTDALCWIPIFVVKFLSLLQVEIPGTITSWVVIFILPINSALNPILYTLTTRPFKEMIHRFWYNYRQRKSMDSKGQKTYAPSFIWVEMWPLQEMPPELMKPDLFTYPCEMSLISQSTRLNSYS
- experiment_notes: Agonist activity at human RXFP1 expressed in HEK293 cells coexpressing GRK2 assessed as beta-arrestin internalization by BRET assay relative to control
measured_quantity: EC50 (nM)
Entry rule: numbers only, all in nM.

INPUT: Look up EC50: `COc1cc(F)c(O[C@H]2CC[C@@](C)(C(=O)O)CC2)cc1C(=O)N[C@@H]1[C@H]2CC[C@H](C2)[C@@H]1C(=O)Nc1ccc(F)c(S(F)(F)(F)(F)F)c1`
OUTPUT: 1.51

###

- experiment_notes: Metabolic stability in human liver microsomes assessed as unbound intrinsic clearance at 1 uM measured upto 30 mins by LC-MS/MS analysis
- Format: ADME, Microsome
- condition_set: 0.5 h
# key: entry, value: CL free

Previously resolved entries follow.
{"cpd_smiles": "COc1cc(F)c(O[C@H]2CC[C@@](CO)(C(=O)O)CC2)cc1C(=O)N[C@@H]1[C@H]2CC[C@H](C2)[C@@H]1C(=O)NCC1(C)CCC1", "CL free": "< 6.2 µL/min/mg"}
{"cpd_smiles": "COc1cc(F)c(O[C@H]2CC[C@@](C)(C(=O)O)CC2)cc1C(=O)N[C@@H]1[C@H]2CC[C@H](C2)[C@@H]1C(=O)Nc1ccc(F)c(S(F)(F)(F)(F)F)c1", "CL free": "3.39 10^3uL/min/mg"}

INPUT: Look up CL free: `COc1cc(C#N)c(O[C@H]2CC[C@@](C)(C(=O)O)CC2)cc1C(=O)N[C@@H]1[C@H]2CC[C@H](C2)[C@@H]1C(=O)NCC(C)(C)C`
OUTPUT: < 4.3 µL/min/mg
